Known activity change, negative = inhibition of a selection of compounds
Assay: AP1 Signaling Pathway (AID 357);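 note: ME-180 reporter cells stimulated with EGF at its EC50 level; % is set by controls: 0 for no effect and ±100 for the full control effect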
Conditions: ME-180 AP-1-bla reporter, EGF-induced, beta-lactamase ratio, 5 h; at 17.2 µM (top of the series) unless noted
Results filed as inconclusive are left out.
Write it as a number; the unit % goes unstated.

Take a look at these entries with their results.
{"compound": "C=CCNc1sc(C(=O)C2CC2)c(N)c1C#N", "quantityKind": "activity change, negative = inhibition", "testResult": -5.75}
{"compound": "CC(=O)C1=C(NC(=O)c2ccccc2F)C[C@@H]2[C@H]1C2(C)C", "quantityKind": "activity change, negative = inhibition", "testResult": -3.24}
{"compound": "CCOC(=O)c1c(C)n(C)c2ccc(OC)c(NC(=O)c3cccs3)c12", "quantityKind": "activity change, negative = inhibition", "testResult": -7.29}

Incoming: Entry COc1ccc(-c2nc3n(n2)C(=O)CC(c2ccco2)S3)cc1 (stereo unspecified) : reported activity change, negative = inhibition = ?
Outgoing: -9.14

Incoming: Entry `Cc1ccc(C)n1Cc1ccc(C(=O)O)cc1` : reported activity change, negative = inhibition = ?
Outgoing: 2.78

Incoming: Entry `Fc1ccccc1-c1nc(NCCCN2CCOCC2)c2ccccc2n1` : reported activity change, negative = inhibition = ?
Outgoing: 0.19

Incoming: Entry CCOc1ccc(/C(O)=C2/C(=O)C(=O)N(CCN(CC)CC)C2c2ccco2)cc1 (stereo unspecified) : reported activity change, negative = inhibition = ?
Outgoing: -1.27

Incoming: Entry `O=C1[C@@H]2[C@H](C(=O)N1n1cnnc1)[C@H]1C=C[C@@H]2C1` : reported activity change, negative = inhibition = ?
Outgoing: -2.82

Incoming: Entry `CCOC(=O)COn1c(=O)c(-c2ccco2)[n+]([O-])c2ccccc21` : reported activity change, negative = inhibition = ?
Outgoing: -20.1

Incoming: Entry `CCCOc1ccc(Cn2c(O)cc(=O)[nH]c2=O)cc1` : reported activity change, negative = inhibition = ?
Outgoing: -5.5

Incoming: Entry CCC(=O)N(Cc1cccs1)C1CCOC(C)(C)C1 (stereo unspecified) : reported activity change, negative = inhibition = ?
Outgoing: -6.24

----------
Experiment: Stat Signaling Pathway (AID 446);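 note: ME-180 cervical cancer cells given 40 pM IL-6 alongside compound; SIE-controlled beta-lactamase reporter measured as 460/530 nm FRET emission ratio; % is set by controls: 0 for no effect and ±100 for the full control effect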
Settings: ME-180 (cervical carcinoma) SIE beta-lactamase reporter, IL-6 stimulated, 5 h; at 17.2 µM (top of the series) unless noted
Records with an inconclusive call do not appear.
Known activity, negative = inhibition of a selection of molecules
Write it as a number; the unit % goes unstated.

{"molecule": "COc1ccc(C(=O)NCC(=O)n2nc(C)cc2C)cc1OC", "activity, negative = inhibition, %": 16.4}

Incoming: Entry Cc1cccc2c1NC(C)CC2C (configuration not stated) : reported activity, negative = inhibition = ?
Outgoing: 13.3

Incoming: Entry COc1ccc(C(=O)C(CN2CCCC2)c2ccccc2)cc1 (configuration not stated) : reported activity, negative = inhibition = ?
Outgoing: -8.3

Incoming: Entry CCn1c(SC(C)C(=O)O)nc2sc3c(c2c1=O)CCC3 (configuration not stated) : reported activity, negative = inhibition = ?
Outgoing: -5.33

Incoming: Entry `COc1ccccc1C(=O)Nc1cc(Cl)ccc1O` : reported activity, negative = inhibition = ?
Outgoing: -4.42

Incoming: Entry `CSc1nc2sc3c(c2c2nnnn12)CCC3` : reported activity, negative = inhibition = ?
Outgoing: 9.44

Incoming: Entry COc1ccc(OCC(O)Cn2c(Nc3cccc(C)c3)nc3c2c(=O)n(C)c(=O)n3C)cc1 (configuration not stated) : reported activity, negative = inhibition = ?
Outgoing: -15.9

Incoming: Entry `Cc1nc2c(c(N3CCOCC3)n1)OCC(=O)N2` : reported activity, negative = inhibition = ?
Outgoing: 6.75

Incoming: Entry CC1(c2cnc(Nc3ccccc3)s2)CCC(=O)O1 (configuration not stated) : reported activity, negative = inhibition = ?
Outgoing: 22.3

----------
Known activity change, negative = inhibition of a selection of molecules
Assay: NFAT Signaling Pathway (AID 444);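 note: carbachol stimulus at about its EC50 of 1 µM final; % is set by controls: 0 for no effect and ±100 for the full control effect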
Details: Jurkat NFAT-bla M1, carbachol, beta-lactamase ratio, 5 h; at 17.2 µM (top of the series) unless noted
Inconclusive results are not listed.
Write it as a number; the unit % goes unstated.

{"molecule": "CCOC(=O)C1=C(C)OC(N)=C(C#N)C1c1cc2ccccc2nc1N1CCCCC1 (stereo unspecified)", "unitsOfMeasure": "%", "activity change, negative = inhibition": -20.1}
{"molecule": "CCn1cc(C(=O)NCC2CCCO2)c(=O)c2cc(F)c(N3CCN(C)CC3)cc21 (stereo unspecified)", "unitsOfMeasure": "%", "activity change, negative = inhibition": -20.1}
{"molecule": "CCOC(=O)c1n[nH]c2ccccc12", "unitsOfMeasure": "%", "activity change, negative = inhibition": 0.11}

Incoming: Entry `O=C(CCN1CCCCC1)Nc1cccc(Cl)c1` : reported activity change, negative = inhibition = ?
Outgoing: -23.2

Incoming: Entry `Cc1oc2nc(SCCCC(=O)NCCCO)nc(N)c2c1C` : reported activity change, negative = inhibition = ?
Outgoing: 15.2

Incoming: Entry `COC(=O)[C@@H](N)Cc1ccc(O)cc1` : reported activity change, negative = inhibition = ?
Outgoing: -26

Incoming: Entry CCNc1nc(NC(C)C)nc(N(C#N)C(C)C(=O)N(C)C)n1 (stereo unspecified) : reported activity change, negative = inhibition = ?
Outgoing: 0.731

Incoming: Entry Cc1ccc(N2C(=O)C3ON(c4ccccc4)C(c4ccncc4)C3C2=O)c(C)c1 (stereo unspecified) : reported activity change, negative = inhibition = ?
Outgoing: 26.3

Incoming: Entry Cc1ccc(N2C(=O)CC3(CC4C=CC3C4)C2=O)cc1 (stereo unspecified) : reported activity change, negative = inhibition = ?
Outgoing: 4.88

Incoming: Entry `COc1cccc(Cn2c(Oc3ccccc3)nc3c2c(=O)n(C)c(=O)n3C)c1` : reported activity change, negative = inhibition = ?
Outgoing: -10.8

Incoming: Entry `CC1(C)Cc2c(oc3ncn4ncnc4c23)CO1` : reported activity change, negative = inhibition = ?
Outgoing: -1.16

----------
Biological target: Cytochrome P450 3A4 (Homo sapiens) (UniProt P08684)
Sequence (P08684 whole entry, looked up): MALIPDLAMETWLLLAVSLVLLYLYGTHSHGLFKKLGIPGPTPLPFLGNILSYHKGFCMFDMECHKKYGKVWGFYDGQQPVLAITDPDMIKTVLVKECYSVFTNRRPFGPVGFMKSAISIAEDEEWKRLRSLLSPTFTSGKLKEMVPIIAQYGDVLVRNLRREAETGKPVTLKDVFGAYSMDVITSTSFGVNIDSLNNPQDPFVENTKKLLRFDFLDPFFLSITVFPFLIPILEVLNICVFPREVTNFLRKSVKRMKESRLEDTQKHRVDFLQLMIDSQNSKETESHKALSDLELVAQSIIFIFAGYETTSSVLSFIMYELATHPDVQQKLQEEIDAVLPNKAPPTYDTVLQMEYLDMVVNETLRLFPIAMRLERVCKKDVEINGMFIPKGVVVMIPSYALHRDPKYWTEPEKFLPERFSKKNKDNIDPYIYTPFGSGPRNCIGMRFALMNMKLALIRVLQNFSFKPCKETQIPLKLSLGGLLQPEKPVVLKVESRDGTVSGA
Assay: qHTS Assay for Inhibitors and Substrates of Cytochrome P450 3A4 (AID 884); note: nearly all actives have a fitted effect of over 50% in size
Conditions: recombinant CYP3A4, Luciferin-PPXE luminescence; series mostly up to 57.1 µM
Records with an inconclusive call do not appear. Calls of active or inactive are those of the source. The call rests on the fitted dose curve; in most records, active means well fitted inhibition curve with a large enough effect; inconclusive means small, poorly fitted or top-dose-only effect; inactive means no such curve, though single readings can be large or run the other way.
Write down one outcome, taken from Yes for active, No for inactive

{"compound": "COc1ccc(-c2oc3cc(OC)c(OC(C)=O)c(OC)c3c(=O)c2OC)cc1OC(C)=O", "className": "Yes"}
{"compound": "COC(=O)[C@@]1(Cc2ccc(F)cc2)[C@H]2c3cc(C(=O)N4CCCC4)n(CCc4ccc(O)c(O)c4)c3C[C@H]2CN1C(=O)c1ccccc1", "className": "Yes"}

Now, please, on to the next compound.
Incoming: Could you please tell me the result logged for CCCC[C@@H]1C[C@H]1C(NC(=O)c1ccco1)c1ccc(Cl)cc1 (stereo partly drawn) in this assay?
Outgoing: No

----------
Tested on: CP315
Assay: qHTS profiling for inhibitors of Plasmodium falciparum proliferation (AID 504749);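 note: 0% = DMSO vehicle and full inhibition = artemisinin control; nearly all actives have a fitted effect of over 60% in size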
Conditions: P. falciparum in erythrocytes, SYBR Green DNA, 72 h; series mostly up to 28.7 µM
Records with an inconclusive call do not appear. Activity calls are given as the source filed them. The call rests on the fitted dose curve; in most records, active means well fitted inhibition curve with a large enough effect; inconclusive means small, poorly fitted or top-dose-only effect; inactive means flat fitted curve, though single readings scatter.
Write down one outcome, taken from 1 (active), 0 (inactive)

{"compound": "CC(O)C1CCC2C3CCC4CC(O)CCC4(C)C3CCC12C (stereo not given)", "className": 0}

Now, please, on to the next compound.
Incoming: Could you please tell me the result logged for CC[C@@H](C)C(N)C(=O)O (stereo not given in full) in this assay?
Outgoing: 0

----------
Assay: Confirmation and Secondary Assay for Modulators of Hemoglobin Beta Chain Splicing at IVS2 654 locus (AID 910);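 note: HeLa cells stably carrying EGFP split by mutant beta-globin IVS2-654 intron; per-well total GFP intensity by laser scanning cytometry after 2-day treatment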
Conditions: HeLa EGFP-654 splicing reporter, GFP fluorescence, 48 h; series mostly up to 46.1 µM
Activity calls are given as the source filed them. Calls come from the whole dose curve; as a rule, active = well fitted activation curve with a large enough effect; inconclusive = small, poorly fitted or top-dose-only effect; inactive = flat fitted curve, though single readings scatter.
Write down one outcome, taken from active, inactive

Look over these answered cases.
{"compound": "OCC1O[C@H](O[C@H]2C(O)C(O)C(O)O[C@@H]2CO)C(O)C(O)C1O (stereo partly drawn)", "className": "inactive"}
{"compound": "CC1(C)SC2C(NC(=O)C(C(=O)O)c3ccccc3)C(=O)N2C1C(=O)O (stereo not drawn)", "className": "inactive"}
{"compound": "CO/N=C(/C(=O)N[C@H]1C(=O)N2C(C(=O)O)=C(COC(C)=O)CSC12)c1csc(N)n1 (stereo partly drawn)", "className": "inactive"}
{"compound": "OC[C@@H]1O[C@@H](n2cnc3cncnc32)[C@@H](O)[C@H]1O", "className": "active"}
{"compound": "Cc1cc(C(C)(C)CC(C)(C)C)ccc1OCCOCC[N+](C)(C)Cc1ccccc1", "className": "inactive"}
{"compound": "CC(=O)OCC(=O)[C@@]1(O)CCC2C3CCC4=CC(=O)C=CC4(C)C3C(O)C[C@]21C (stereo partly drawn)", "className": "inactive"}
{"compound": "CC(=O)OCC1=C(C(=O)O)N2C(=O)C(NC(=O)CSc3ccncc3)[C@@H]2SC1 (stereo partly drawn)", "className": "inactive"}
{"compound": "O=C(NC(CO)C(O)c1ccc([N+](=O)[O-])cc1)C(Cl)Cl (stereo not drawn)", "className": "inactive"}
{"compound": "CCC1OC(=O)C[C@H](O)C(C)[C@@H](O[C@@H]2OC(C)C(O)C(N(C)C)C2O)C(CCN2CC(C)CC(C)C2)CC(C)C(=O)/C=C/C(C)=C\\[C@@H]1COC1OC(C)C(O)C(OC)C1OC (stereo partly drawn)", "className": "inactive"}
{"compound": "Cc1c(C)c2c(c(C)c1O)CCC(C)(CCCC(C)CCCC(C)CCCC(C)C)O2 (stereo not drawn)", "className": "inactive"}

Incoming: Could you please tell me the result logged for Nc1nc(/C(=C/CC(=O)O)C(=O)NC2C(=O)N3C(C(=O)O)=CCSC23)cs1 (stereo not drawn) in this assay?
Outgoing: inactive

Incoming: Could you please tell me the result logged for CC[C@@]1(O)CC2CN(CCc3c([nH]c4ccccc34)[C@](C(=O)OC)(c3cc4c(cc3OC)N(C)C3[C@@](O)(C(=O)OC)C(OC(C)=O)[C@]5(CC)C=CCN6CC[C@@]43C65)C2)C1 (stereo partly drawn) in this assay?
Outgoing: inactive

Incoming: Could you please tell me the result logged for `FC(F)(F)c1ccccc1-c1nc(Nc2ccncc2)c2ccccc2n1` in this assay?
Outgoing: inactive

Incoming: Could you please tell me the result logged for `Nc1ccn([C@@H]2O[C@@H](CO)[C@@H](O)[C@H]2O)c(=O)n1` in this assay?
Outgoing: inactive

Incoming: Could you please tell me the result logged for CCC(C(=O)C(C)C(O)C(C)CCc1ccc(C)c(O)c1C(=O)O)C1OC(CC)(C2CC[C@@](O)(CC)C(C)O2)CC1C (stereo partly drawn) in this assay?
Outgoing: inactive

Incoming: Could you please tell me the result logged for OCCN1CC(O)C(O)C(O)C1CO (stereo not drawn) in this assay?
Outgoing: inactive

Incoming: Could you please tell me the result logged for C=NC(C(=O)NC1C(=O)N2C1SC(C)(C)C2C(=O)O)c1ccccc1 (stereo not drawn) in this assay?
Outgoing: inactive

Incoming: Could you please tell me the result logged for NC(=O)c1ncn(C2OC(CO)C(O)C2O)c1N (stereo not drawn) in this assay?
Outgoing: inactive
